Counter-ions that a name gives are not always drawn.
Listing of recorded melting point by entry.

# compound, melting point
rows = [
    ("CN1CCn2c(nc(-c3ccncn3)cc2=O)C(NC(=O)c2cc(Cl)c(N)c3c2OCCO3)C1 (racemic)", "169 to 171 °C"),
    ("CCOC(=O)N1CCn2c(nc(-c3ccncn3)cc2=O)C(NC(=O)c2ccc3ncccc3n2)C1 (racemic)", "284 to 286 °C"),
    ("O=C(NC1CNCCn2c1nc(-c1ccncc1)cc2=O)c1cc(F)cc2c1OCOC2 (racemic) (as salt: HCl)", "232 to 234 °C"),
    ("CCOC(=O)N1CCn2c(nc(-c3ccncc3)cc2=O)C(NC(=O)c2cccc3c2OCC3)C1 (racemic)", "284 to 286 °C"),
]

----------
# systemName: UniProtKB P49841
# Sequence (P49841 whole entry): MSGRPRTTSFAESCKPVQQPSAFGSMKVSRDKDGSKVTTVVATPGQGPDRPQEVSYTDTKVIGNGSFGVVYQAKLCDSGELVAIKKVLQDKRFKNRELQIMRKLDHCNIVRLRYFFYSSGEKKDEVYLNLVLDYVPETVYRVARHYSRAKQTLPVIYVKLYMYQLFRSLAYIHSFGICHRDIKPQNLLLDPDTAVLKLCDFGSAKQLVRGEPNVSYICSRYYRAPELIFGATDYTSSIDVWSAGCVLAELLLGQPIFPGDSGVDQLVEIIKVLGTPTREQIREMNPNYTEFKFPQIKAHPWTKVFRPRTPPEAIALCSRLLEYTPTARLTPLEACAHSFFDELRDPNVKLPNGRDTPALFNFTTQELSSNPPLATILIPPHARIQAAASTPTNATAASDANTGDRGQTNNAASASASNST

# molecule, measurementUnit, IC50
data = [
    ("CCOC(=O)N1CCn2c(nc(-c3ccncc3)cc2=O)C(NC(=O)c2cccc3c2OCC3)C1 (racemic)", "nM", 109),
]
